# assay_overview: NCI Yeast Anticancer Drug Screen. Data for the cln2 rad14 strain (AID 165);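 note: 0% = growth equal to vehicle treated cultures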
# recorded_conditions: S. cerevisiae cln2 rad14 strain, at 50.0 µM
This is part of a sample that, as a whole, favours compounds with a hit. Of some 79,000 tested, about 15% had one in any assay. Activity calls are given as the source filed them. Cut-off read from the data, not from the text of the source: active = growth inhibition above about 70%; inactive = the rest.
Possible outcomes: Yes (active), No (inactive)

INSERT INTO results (compound, label) VALUES
  ('CC(=O)CC(O)(C(F)(F)Cl)C(F)(Cl)Cl (stereo unspecified)', 'No'),
  ('CCCCN(CCCC)C1=Nc2ccccc2-n2c(nnc2C(=O)OCC)C1', 'No'),
  ('CCOC(=O)N(C)N=NCCCl', 'No'),
  ('CCCCC(O)(CCCC)C(C)(C)C', 'No'),
  ('CC(C)(C)c1ccc(O)c(C(O)c2ccncc2)c1 (stereo unspecified)', 'No'),
  ('CCCCNC(=O)C(CCCC)C(CCC)(CCC)CCCC (stereo unspecified)', 'No'),
  ('O=C(Nc1cccc(C(F)(F)F)c1)OCCOc1ccc(Cl)cc1', 'Yes'),
  ('CC(SC(=S)N1CCOCC1)c1cc2oc(=O)n(C)c2cc1Cl (stereo unspecified)', 'No'),
  ('Nc1nc(Nc2ccccc2)nc(SCc2ccccc2)n1', 'No'),
  ('CC(C)(C)c1ccc(O)c(C(=O)O)c1', 'No'),
  ('C=C1C(=O)OC2C1CCC1(C)CC(Br)C(=O)C(C)C21 (stereo unspecified)', 'No');

* * *

Entries and their measured growth inhibition follow.
# assay_overview: NCI Yeast Anticancer Drug Screen. Data for the mec2-1 strain (AID 157)
# recorded_conditions: S. cerevisiae mec2-1 strain, at 50.0 µM, active compounds read high
# Protocol: Growth inhibition of yeast strains with defined genetic alterations is measured as a screen for potential anti-cancer activity. Selected strains with alterations in DNA damage repair or cell cycle control were exposed to compounds and growth inhibition was measured relative to vehicle treated controls. The strain used in this assay is mec2-1
This is part of a sample that, as a whole, favours compounds with a hit. Of some 79,000 tested, about 15% had one in any assay.
measurement_kind: growth inhibition (%)

INSERT INTO results (compound, recorded_number) VALUES
  ('OC(c1ccccc1)(C(F)(F)F)C(F)(F)F', 5.85),
  ('CC(NNC(=O)c1ccncc1)c1ccc(Cl)cc1Cl (stereo not given)', 9.15),
  ('O=C1c2ccccc2C(=O)c2c1nnn2-c1ccccc1', 5.95),
  ('CC(=O)Nc1cc(Cl)c(Oc2ccccc2)cc1[N+](=O)[O-]', 27.9),
  ('O=C(Cc1ccccc1)NN1C(=O)/C(=C\c2ccc(O)cc2)SC1=Nc1ccccc1', -1.05);

* * *

# assay_overview: NCI Yeast Anticancer Drug Screen. Data for the mec2-1 strain (AID 157)
# recorded_conditions: S. cerevisiae mec2-1 strain, at 50.0 µM, active compounds read high
About 79,000 compounds went through this panel and 15% of them were active in at least one assay; those are over-represented in the sample as a whole.
measurement_kind: growth inhibition (%)

INSERT INTO results (compound, recorded_number) VALUES
  ('Nc1cc(=O)c2n[nH]nc2[nH]1', 0.7),
  ('C/C(CC(N)=O)=C1\C(=O)NN(c2ccccc2)C1=O', 26.4),
  ('CC(C)CC(=O)OC1=C(OC(=O)CC(C)C)C(=O)C(OC(=O)CC(C)C)=C(OC(=O)CC(C)C)C1=O', 15.3),
  ('CCOC(=O)/C=C/C(=O)NNS(=O)(=O)CCC(N)C(=O)O (stereo unspecified)', 13.4),
  ('O=C(Nc1ccccc1)OC1C=CC2CCC1C2 (stereo unspecified)', 3.35),
  ('CC(C)(C)OC(=O)CNC(=O)C(CSC(c1ccccc1)(c1ccccc1)c1ccccc1)N1C(=O)c2ccccc2C1=O (stereo unspecified)', 32.5),
  ('COc1ccc(C2=NNC(=O)OC2c2ccccc2)cc1 (stereo unspecified)', 16.9),
  ('O=C(N/N=C\c1ccncc1)Nc1ccc(N=Nc2ccccc2)cc1', 6.05),
  ('Nc1ccccc1N1C(=O)C(Cl)=C(Cl)C1=O', 5.4),
  ('O=C(O)CS(=O)(=O)Cc1ccc(Cl)cc1Cl', 20.4),
  ('COc1cccc(N2C(=O)c3c(c4[nH]c5ccccc5c4c4ccc(C(C)(C)C)cc34)C2=O)c1', -15.1),
  ('O=C(O)CCc1ccc2c(c1)OCO2', -24.1),
  ('CC1CCC2(CC1)OC(C)C(C)O2 (stereo unspecified)', -2.4),
  ('CCCCCCCC(CC#N)(CCCCC)CCCCCC (stereo unspecified)', -10.1),
  ('O=C1c2cc([N+](=O)[O-])cc3cc([N+](=O)[O-])cc(c23)C(=O)N1CCNCCNCCNCCN1C(=O)c2cc([N+](=O)[O-])cc3cc([N+](=O)[O-])cc(c23)C1=O', 90.4),
  ('Nc1c(S(=O)(=O)O)ccc2c1C(=O)c1ccccc1C2=O', 24.2),
  ('CCSc1n[nH]c(=O)nc1SC', -3.25),
  ('COC(=O)C(Cc1ccccc1)NCCN (stereo unspecified)', 7.4),
  ('COC(=O)C1OC(O[C@H]2CC[C@]3(C)[C@H]4CC=C5[C@@H]6CC(C)(C)CC[C@]6(C(=O)OC6OCC(O)C(O)C6OC6OC(C)C(OC7OCC(OC8OCC(O)C(O)C8O)C(O)C7O)C(O)C6O)[C@H](O)C[C@@]5(C)[C@]4(C)CC[C@H]3C2(C)C)C(O)C(O)C1O (stereo partly specified)', 17),
  ('O=S(=O)(c1ccc(Nc2nnc(-c3ccccc3)s2)cc1)N1CCCCC1', 12.8),
  ('N#CC(C#N)=CNC(=S)c1ccncc1', -33.6),
  ('O=C(CCCn1cnc([N+](=O)[O-])n1)NCCCn1ccnc1[N+](=O)[O-]', -19.7),
  ('Cc1cn(C2CC(O)C(COC(N)=O)O2)c(=O)[nH]c1=O (stereo unspecified)', -20.9),
  ('N#Cc1cccc(N(C(=O)c2ccccc2)c2ccccc2)n1', 7.9),
  ('CC(=O)NC(CCCN(Cc1ccccc1)C(=O)NCCCl)C(=O)NCc1ccccc1 (stereo unspecified)', -25.5),
  ('COc1ccc(CCn2nnc3ccccc3c2=O)cc1OC', -33.1);

* * *

# assay_overview: NCI Yeast Anticancer Drug Screen. Data for the mec2-1 strain (AID 157)
# recorded_conditions: S. cerevisiae mec2-1 strain, at 50.0 µM, active compounds read high
The panel holds about 79,000 compounds, 15% with a hit somewhere; the sample as a whole holds those more often.
Entries and their measured growth inhibition follow.
measurement_kind: growth inhibition (%)

INSERT INTO measurements (compound, measurement_kind, recorded_number) VALUES
  ('CC(=O)Nc1ccc(S(=O)(=O)NNC(=O)C(=O)Nc2cccc(Cl)c2)cc1', 'growth inhibition', -21.4),
  ('O=C(CN1CCN(c2ccccc2)CC1)N1CCc2c([nH]c3ccccc23)C1c1cccnc1 (configuration not stated)', 'growth inhibition', -19.8),
  ('CC1=CC(=O)OC1=O', 'growth inhibition', 15),
  ('C/C(=N\O)c1cccc[n+]1Cc1ccccc1', 'growth inhibition', 12.7),
  ('COC(=O)/C(=N\N)C(C(=O)C(=O)Nc1nc(=S)[nH][nH]1)c1nc2ccc([N+](=O)[O-])cc2[nH]c1=O (configuration not stated)', 'growth inhibition', -7.65),
  ('S=C1SC(=Nc2ccccc2)C(=Nc2ccccc2)N1c1ccc2ccccc2c1', 'growth inhibition', 8.75),
  ('C[C@]12CCC(=O)C=C1CC[C@@H]1[C@@H]2C(=O)C[C@@]2(C)[C@H]1CC[C@]2(O)C(=O)C=O', 'growth inhibition', -1.4);

* * *

# assay_overview: NCI Yeast Anticancer Drug Screen. Data for the sgs1 mgt1 strain (AID 161);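 note: 0% = growth of cultures given vehicle only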
# recorded_conditions: S. cerevisiae sgs1 mgt1 strain, at 50.0 µM, active compounds read high
Compounds without any hit were thinned out: in the full panel of roughly 79,000, 15% have a hit. Activity calls are given as the source filed them. No stated cut-off is given here; in the data, active means growth inhibition above about 70%; inactive means the rest.
Entries and their measured growth inhibition follow.
measurement_kind: growth inhibition

INSERT INTO assay_data (molecule, result) VALUES
  ('CC(=O)OC12C3C4C1C1C2C3C41OC(C)=O (centres undefined)', '-24.1% (inactive)'),
  ('Cc1cn(C2CC(O)C(CO)O2)c(=O)nc1NC1CCCCCCCCCCC1 (centres undefined)', '10.1% (inactive)'),
  ('COC(=O)c1cc2cccn2cn1', '-13.2% (inactive)'),
  ('Cc1cc(S(N)(=O)=O)c(SCc2nc(N)nc(N(C)C)n2)cc1Cl', '-20.3% (inactive)');

* * *

# assay_overview: NCI Yeast Anticancer Drug Screen. Data for the bub3 strain (AID 167)
# recorded_conditions: S. cerevisiae bub3 mutant strain, at 50.0 µM, active compounds read high
This is part of a sample that, as a whole, favours compounds with a hit. Of some 79,000 tested, about 15% had one in any assay.
measurement_kind: growth inhibition (%)

INSERT INTO results (compound_smiles, result_unit, recorded_number) VALUES
  ('CC1(C)COC(=O)/C1=C/C#N', '%', -12.4),
  ('C=CCNC(=S)Nc1cccc(O)c1', '%', -10.9),
  ('Cc1ncc([N+](=O)[O-])n1CCNCCCCn1ccnc1[N+](=O)[O-]', '%', -52.3);
